Listed compounds paired with reported IC50
- target: CK1δ/ε
- method-notes: radiometric protein kinase assay
- run-conditions: 15 μmol/L ATP; read-out: IC50 CK1

compound=Cc1[nH]c2c3c(ccc2c1-c1ccccc1)CNC3=O attribute_measured=IC50 value_measured="> 10 µM"
compound=O=C1NCc2ccc3c(-c4ccccc4Cl)c[nH]c3c21 attribute_measured=IC50 value_measured="> 10 µM"
compound=CCc1[nH]c2c3c(ccc2c1-c1ccccc1)CNC3=O attribute_measured=IC50 value_measured="6.1 µM"
compound="CCn1cc(-c2ccccc2)c2ccc3c(c21)C(=O)NC3 [15b]" attribute_measured=IC50 value_measured="> 10 µM"
compound="O=C1NCc2c(-c3ccccc3F)cc3c(-c4ccccc4)c[nH]c3c21 [17b]" attribute_measured=IC50 value_measured="> 10 µM"
compound="O=C1NCc2c(-c3cccc(F)c3)cc3c(-c4ccccc4)c[nH]c3c21 [17c]" attribute_measured=IC50 value_measured="> 10 µM"
compound="O=C1NCc2c(Cl)cc3c(-c4ccccc4)c[nH]c3c21 [12c]" attribute_measured=IC50 value_measured="> 10 µM"
compound=Cc1cccc(-c2c[nH]c3c4c(ccc23)CNC4=O)c1 attribute_measured=IC50 value_measured="> 10 µM"

Query: Given the entry O=C1NCc2ccc3c(-c4ccccc4)c[nH]c3c21 , report its measured IC50.
Response: > 10 µM

Query: Param item = Cc1[nH]c2c3c(c(Br)cc2c1-c1ccccc1)CNC3=O [12b] ; retrieve measured IC50.
Response: > 10 µM

Query: Name the recorded IC50 for O=C1NCc2c(-c3ccccc3)cc3c(-c4ccccc4)c[nH]c3c21 [17a] .
Response: > 10 µM

* * *

Recorded melting point by entry
Counter-ions that a name gives are not always drawn.

Reference set (3 entries):
compound="O=C1NCc2ccc3c(-c4ccc(Cl)c(Cl)c4)c[nH]c3c21 (as salt: sodium)" attribute_measured="melting point" value_measured="258 to 259 °C"
compound=O=C1NCc2ccc3c(-c4ccccc4Cl)c[nH]c3c21 attribute_measured="melting point" value_measured="234 to 235 °C"
compound="O=C1NCc2c(-c3ccccc3F)cc3c(-c4ccccc4)c[nH]c3c21 [17b]" attribute_measured="melting point" value_measured="136 to 139 °C"

Query: Which melting point is listed for O=C1NCc2ccc3c(-c4ccc(Cl)cc4)c[nH]c3c21 (as salt: sodium) ?
Response: 255 to 257 °C

Query: // query melting point value for entry CCc1[nH]c2c3c(ccc2c1-c1ccccc1)CNC3=O (as salt: sodium)
Response: 165 to 170 °C

Query: Form field: reported melting point of Cc1[nH]c2c3c(ccc2c1-c1ccccc1)CNC3=O (as salt: sodium)
Response: 245 to 247 °C

Query: I would be grateful if you could share the reported melting point for CCOC(=O)Cn1cc(-c2ccccc2)c2ccc3c(c21)C(=O)NC3 [15d] .
Response: 226 to 227 °C

Query: Recorded melting point of CN1Cc2ccc3c(-c4ccccc4)c[nH]c3c2C1=O (as salt: sodium) [12d] , please.
Response: 265 to 267 °C

* * *

Reported Residual enzyme activity DYRK 1B by item:
- target: DYRK1B (Homo sapiens, UniProt Q9Y463)
- Sequence (Q9Y463 whole entry): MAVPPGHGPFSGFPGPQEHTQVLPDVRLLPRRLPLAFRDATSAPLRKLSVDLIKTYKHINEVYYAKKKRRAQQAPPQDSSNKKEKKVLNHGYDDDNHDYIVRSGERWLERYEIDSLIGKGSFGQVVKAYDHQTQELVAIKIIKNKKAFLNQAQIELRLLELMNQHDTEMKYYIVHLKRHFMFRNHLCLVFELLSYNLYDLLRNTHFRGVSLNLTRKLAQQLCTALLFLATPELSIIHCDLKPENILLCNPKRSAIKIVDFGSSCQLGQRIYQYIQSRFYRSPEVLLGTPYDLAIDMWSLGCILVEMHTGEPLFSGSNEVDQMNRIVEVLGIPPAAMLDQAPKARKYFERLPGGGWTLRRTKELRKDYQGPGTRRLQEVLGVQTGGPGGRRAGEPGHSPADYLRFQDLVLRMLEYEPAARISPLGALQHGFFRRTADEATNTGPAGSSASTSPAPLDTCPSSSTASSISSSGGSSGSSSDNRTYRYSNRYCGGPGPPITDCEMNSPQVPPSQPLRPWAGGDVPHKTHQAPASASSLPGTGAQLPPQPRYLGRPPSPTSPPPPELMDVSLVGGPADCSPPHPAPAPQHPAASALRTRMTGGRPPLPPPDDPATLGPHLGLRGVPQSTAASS
- method-notes: radiometric protein kinase assay
- Type: biochemical
- run-conditions: 10 µM concentration; ± SEM
Value expressed in %; do not type the unit.

compound="Cc1c(-c2ccccc2)[nH]c2c3c(ccc12)CNC3=O [S18c]" attribute_measured="Residual enzyme activity DYRK 1B" value_measured=50
compound=Cc1[nH]c2c3c(ccc2c1C)C(=O)NC3=O attribute_measured="Residual enzyme activity DYRK 1B" value_measured=39
compound="CCc1c(-c2ccccc2)[nH]c2c3c(ccc12)CNC3=O [S18d]" attribute_measured="Residual enzyme activity DYRK 1B" value_measured=65
compound="CCc1[nH]c2c3c(ccc2c1C)CNC3=O [S18a]" attribute_measured="Residual enzyme activity DYRK 1B" value_measured=46
compound="Cc1ccc(-c2[nH]c3c4c(ccc3c2C)CNC4=O)cc1 [S18e]" attribute_measured="Residual enzyme activity DYRK 1B" value_measured=85

# evaluate next
Query: May I ask what Residual enzyme activity DYRK 1B has been recorded for Cc1[nH]c2c3c(ccc2c1C)CNC3=O [S18b] ?
Response: 77

* * *

- target: CLK2 (Mus musculus)
- Sequence (O35491 whole entry): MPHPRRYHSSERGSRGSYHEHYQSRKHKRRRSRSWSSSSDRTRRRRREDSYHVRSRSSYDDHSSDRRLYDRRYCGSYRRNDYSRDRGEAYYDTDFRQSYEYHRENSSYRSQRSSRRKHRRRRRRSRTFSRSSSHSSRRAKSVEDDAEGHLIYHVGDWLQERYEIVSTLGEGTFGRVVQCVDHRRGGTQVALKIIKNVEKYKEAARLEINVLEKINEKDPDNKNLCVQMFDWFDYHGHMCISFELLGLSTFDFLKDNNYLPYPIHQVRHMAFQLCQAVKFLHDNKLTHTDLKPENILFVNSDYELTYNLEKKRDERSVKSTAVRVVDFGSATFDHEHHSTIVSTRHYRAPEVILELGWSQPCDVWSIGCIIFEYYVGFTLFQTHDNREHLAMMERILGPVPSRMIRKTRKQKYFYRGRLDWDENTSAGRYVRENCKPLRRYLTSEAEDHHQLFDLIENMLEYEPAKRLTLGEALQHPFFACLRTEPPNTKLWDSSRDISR
- method-notes: radiometric protein kinase assay
- run-conditions: 10 µM concentration; ± SEM
attribute-measured: Residual enzyme activity CLK 2 (%)
Write down the numeric answer in % and omit the unit.

# count of solved cases: 5
molecule="Cc1[nH]c2c3c(ccc2c1C)C(=O)NC3=O [S19]" unit_name=% value_measured=33
molecule="Cc1[nH]c2c3c(ccc2c1C)CNC3=O [S18b]" unit_name=% value_measured=63
molecule="Cc1ccc(-c2[nH]c3c4c(ccc3c2C)CNC4=O)cc1 [S18e]" unit_name=% value_measured=77
molecule="CCc1c(-c2ccccc2)[nH]c2c3c(ccc12)CNC3=O [S18d]" unit_name=% value_measured=66
molecule="CCc1[nH]c2c3c(ccc2c1C)CNC3=O [S18a]" unit_name=% value_measured=31

Query: Requested field: Residual enzyme activity CLK 2. Item: Cc1c(-c2ccccc2)[nH]c2c3c(ccc12)CNC3=O [S18c]
Response: 30

* * *

// each record: one item and its IC50 for CLK3 (Mus musculus)

molecule="O=C1NCc2c(-c3cccc(F)c3)cc3c(-c4ccccc4)c[nH]c3c21 [17c]" value_measured="> 10 µM"
molecule="NC(=O)Cn1cc(-c2ccccc2)c2ccc3c(c21)C(=O)NC3 [15c]" value_measured="> 10 µM"
molecule=O=C1NCc2ccc3c(-c4cccc([N+](=O)[O-])c4)c[nH]c3c21 value_measured="8.5 µM"
molecule="CN1Cc2ccc3c(-c4ccccc4)cn(C)c3c2C1=O [15e]" value_measured="> 10 µM"
molecule="O=C1NCc2c(-c3ccccc3F)cc3c(-c4ccccc4)c[nH]c3c21 [17b]" value_measured="> 10 µM"
molecule=CC(=O)Oc1cccc(-c2c[nH]c3c4c(ccc23)CNC4=O)c1 value_measured="3.3 µM"
molecule=O=C1NCc2ccc3c(-c4ccccc4)c[nH]c3c21 value_measured="> 10 µM"
molecule=O=C1NCc2ccc3c(-c4ccc(Cl)c(Cl)c4)c[nH]c3c21 value_measured="> 10 µM"
molecule="O=C1NCc2c(-c3ccccc3)cc3c(-c4ccccc4)c[nH]c3c21 [17a]" value_measured="> 10 µM"

--- query ---
Query: // IC50 lookup, key: O=C1NCc2ccc3c(-c4cccc(Cl)c4)c[nH]c3c21
Response: > 10 µM

* * *

Catalogue of pIC50 readings, one per entry.
- target: UniProtKB O43781
- Sequence (O43781 whole entry): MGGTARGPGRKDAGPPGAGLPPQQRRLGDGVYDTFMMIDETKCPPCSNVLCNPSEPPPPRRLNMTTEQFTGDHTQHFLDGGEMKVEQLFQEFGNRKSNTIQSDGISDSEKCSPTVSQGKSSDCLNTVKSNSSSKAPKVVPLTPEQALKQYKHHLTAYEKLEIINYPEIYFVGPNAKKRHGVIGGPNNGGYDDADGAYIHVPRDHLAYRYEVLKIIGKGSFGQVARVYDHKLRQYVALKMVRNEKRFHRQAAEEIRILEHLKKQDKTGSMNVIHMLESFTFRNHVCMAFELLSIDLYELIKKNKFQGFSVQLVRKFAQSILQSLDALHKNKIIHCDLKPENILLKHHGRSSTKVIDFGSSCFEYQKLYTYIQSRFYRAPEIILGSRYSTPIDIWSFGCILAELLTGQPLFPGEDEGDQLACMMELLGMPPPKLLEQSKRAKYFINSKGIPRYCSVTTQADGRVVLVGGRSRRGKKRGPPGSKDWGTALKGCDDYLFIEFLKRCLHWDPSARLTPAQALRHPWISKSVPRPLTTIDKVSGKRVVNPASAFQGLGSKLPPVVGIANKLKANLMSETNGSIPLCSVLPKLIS
pIC50: −log10 of the molar value.

Guide cases for pIC50, answers given:
molecule=O=C1NCc2ccc3c(-c4cccc([N+](=O)[O-])c4)c[nH]c3c21 target="UniProtKB O43781" value_measured=5.72
molecule=O=C1NCc2ccc3c(-c4ccccc4)c[nH]c3c21 target="UniProtKB O43781" value_measured="< 5.00"

Query: Request - read-out pIC50 | tested on UniProtKB O43781 | molecule Cc1cccc(-c2c[nH]c3c4c(ccc23)CNC4=O)c1
Response: < 5.00

Query: Which measured pIC50 belongs to CN1Cc2ccc3c(-c4ccccc4)cn(C)c3c2C1=O [15e] , tested on UniProtKB O43781?
Response: < 5.00

Query: Under UniProtKB O43781: pIC50 value of O=C1NCc2ccc3c(-c4cccc(O)c4)c[nH]c3c21 ?
Response: 5.66

Query: Checklist item: pIC50 tested on UniProtKB O43781, entry Cn1cc(-c2ccccc2)c2ccc3c(c21)C(=O)NC3 [15a] , value?
Response: < 5.00

* * *

- target: CLK4 (Mus musculus)
- Sequence (O35493 whole entry): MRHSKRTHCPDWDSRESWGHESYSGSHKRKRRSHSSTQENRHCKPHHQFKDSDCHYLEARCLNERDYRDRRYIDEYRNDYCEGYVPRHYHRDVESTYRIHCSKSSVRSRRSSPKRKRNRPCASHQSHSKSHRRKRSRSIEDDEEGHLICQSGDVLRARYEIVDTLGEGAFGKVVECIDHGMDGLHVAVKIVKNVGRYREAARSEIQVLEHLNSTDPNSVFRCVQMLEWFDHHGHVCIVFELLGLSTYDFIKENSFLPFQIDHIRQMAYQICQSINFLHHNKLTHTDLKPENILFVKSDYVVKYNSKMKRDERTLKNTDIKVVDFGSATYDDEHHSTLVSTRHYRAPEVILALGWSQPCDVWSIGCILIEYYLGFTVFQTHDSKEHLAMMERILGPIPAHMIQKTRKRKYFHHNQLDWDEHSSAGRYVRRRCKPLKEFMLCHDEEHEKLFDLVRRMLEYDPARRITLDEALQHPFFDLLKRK
- method-notes: radiometric protein kinase assay
- run-conditions: 10 µM concentration; ± SEM
attribute-measured: Residual enzyme activity CLK 4 (%)
Write the value in % as a bare number.

Example entries begin here.
molecule="Cc1c(-c2ccccc2)[nH]c2c3c(ccc12)CNC3=O [S18c]" target="CLK4 (Mus musculus)" attribute_measured="Residual enzyme activity CLK 4" value_measured=10
molecule=Cc1[nH]c2c3c(ccc2c1C)C(=O)NC3=O target="CLK4 (Mus musculus)" attribute_measured="Residual enzyme activity CLK 4" value_measured=21
molecule="CCc1[nH]c2c3c(ccc2c1C)CNC3=O [S18a]" target="CLK4 (Mus musculus)" attribute_measured="Residual enzyme activity CLK 4" value_measured=7

Query: Give the measured Residual enzyme activity CLK 4 of Cc1[nH]c2c3c(ccc2c1C)CNC3=O [S18b] .
Response: 48

Query: Reported Residual enzyme activity CLK 4, molecule CCc1c(-c2ccccc2)[nH]c2c3c(ccc12)CNC3=O [S18d] : ____
Response: 38

Query: Which Residual enzyme activity CLK 4 value is on record for Cc1ccc(-c2[nH]c3c4c(ccc3c2C)CNC4=O)cc1 [S18e] ?
Response: 64
